# System: P388 leukemia ip, CD2F1 mice, survival T/C
# measurementDescription: NCI In Vivo Anticancer Drug Screen. Data for tumor model P388 Leukemia (intraperitoneal) in CD2F1 (CDF1) mice
# assayContext: endpoint: median survival time; dose: 400.0 mg/kg/injection; schedule: Q01DX009 (ip); vehicle: saline with Tween-80; higher = longer survival
Toxic doses and inconclusive results are not listed.
attributeMeasured: T/C

Please review the following examples before continuing.
compound="O=C(O)C(O)(c1ccccc1)C1CCCC1 (stereo not drawn)" observed="107 % of control"
compound="CC/S(=N\\S(=O)(=O)c1ccc(C)cc1)c1ccccc1 (stereo not drawn)" observed="100 % of control"
compound="NCC1CCC(C(=O)O)CC1 (stereo not drawn)" observed="100 % of control"
compound=Cc1ccc(C)c(Nc2ccccc2[N+](=O)[O-])c1 observed="112 % of control"
compound="CCOC(=O)CCC(NC(=O)c1ccc(NCCC(C)=O)cc1)C(=O)OCC (stereo not drawn)" observed="105 % of control"
compound="O=C(CCl)NC(Cc1ccc(O)cc1)C(=O)O (stereo not drawn)" observed="114 % of control"
compound=O=[N+]([O-])c1ccc(C=Nc2ccccc2)cc1 observed="96 % of control"

Turning now to a further compound:
The reported T/C of the compound O=C1O/C(=C\c2ccccc2)c2c(Br)c(Br)c(Br)c(Br)c21 was 99 % of control

* * *

Consider the following compounds and their measured T/C readings.
# Tested on: P388 leukemia ip, CD2F1 mice, survival T/C
# measurementDescription: NCI In Vivo Anticancer Drug Screen. Data for tumor model P388 Leukemia (intraperitoneal) in CD2F1 (CDF1) mice
# assayContext: endpoint: median survival time; dose: 100.0 mg/kg/injection; schedule: Q01DX005 (ip); vehicle: Klucel (hydroxypropylcellulose) (HPC); higher = longer survival
Toxic doses and inconclusive results are not listed. Square brackets hold non-standard residues; d marks the D form. Peptide text beside a SMILES is read from it. * marks the point of attachment. ξ: configuration not given here. Cbz = O=C(OCc1ccccc1)*; ξNva = CCCC(N)C(=O)O

Example compounds with recorded T/C:
compound=Cc1cccc(Nc2nc(C)nc3[nH]c(CC(C)C)c(C)c23)c1 experimentaltarget="P388 leukemia ip, CD2F1 mice, survival T/C" attributemeasured=T/C observed="96 % of control"
compound=Cn1cnc([N+](=O)[O-])c1Sc1nnc(-c2ccccc2)c(-c2ccccc2)n1 experimentaltarget="P388 leukemia ip, CD2F1 mice, survival T/C" attributemeasured=T/C observed="86 % of control"
compound=CCCCCCCC(=O)Nc1nnc(SCCCCCCCCCCCCSc2nnc(NC(=O)CCCCCCC)s2)s1 experimentaltarget="P388 leukemia ip, CD2F1 mice, survival T/C" attributemeasured=T/C observed="89 % of control"
compound=Nc1cccc(NCc2ccccn2)n1 experimentaltarget="P388 leukemia ip, CD2F1 mice, survival T/C" attributemeasured=T/C observed="104 % of control"
compound=CCc1nc2c(cnn2C)c(=O)n1-c1ccc(C)cc1 experimentaltarget="P388 leukemia ip, CD2F1 mice, survival T/C" attributemeasured=T/C observed="101 % of control"
compound="O=C1OC(C(Cl)(Cl)Cl)Nc2ccccc21 (stereo not given)" experimentaltarget="P388 leukemia ip, CD2F1 mice, survival T/C" attributemeasured=T/C observed="111 % of control"

Value of T/C reported for the compound Cc1cc(=O)oc2c(C)c3oc4ccncc4c3cc12 is 110 % of control

The recorded T/C for entry CN1CCc2c1cc(-c1ccco1)c1c2N(C)CC1 equals 111 % of control

The recorded T/C for Cc1c2noc1CCCCCCCCCCC2 is 110 % of control

Form field T/C, entry CC(C)(C)SCC(NC(=O)OCC1c2ccccc2-c2ccccc21)C(=O)O (stereo not given) : 100 % of control

Value of measured T/C for the entry CCCCCCCC(=O)NC(CCSC)C(=O)O (stereo not given) : 88 % of control

So for O=C(OCC(Cl)(Cl)Cl)N1[C@H]2C3=C(CCC3)[C@@H]([C@H]3O[C@H]32)N1C(=O)OCC(Cl)(Cl)Cl , the logged T/C turned out to be 97 % of control

Lookup result for O=S(=O)(Cc1cccs1)c1ncc(Br)cn1 ; measured T/C: 117 % of control

Lab note: measured T/C of Cc1cccc(-n2c(C)nc3[nH]cc(C)c3c2=N)c1 was 105 % of control

Form: compound = Cc1nnc2c3c4c(sc3nc(C)n12)CCCC4 ; T/C = 98 % of control

// T/C lookup, compound = COC1C2=C(CCCC2)OC(=O)C1(Cl)c1ccccc1 (stereo not given) , result: 101 % of control

The reported value for NC(C(=O)O)C1C=CCC1 (stereo not given) in terms of T/C is 99 % of control

T/C for CC1=C(c2ccccc2)C2(c3ccccc3)[N-][n+]3c(ccc4ccccc43)C2(C)C1=O (stereo not given) is 97 % of control

Measured T/C, Cc1cc2c(c(O)cc(=O)n2Cc2ccccc2)c(=O)n1Cc1ccccc1 : 94 % of control

GET /value?item= CCCC(NC(=O)OCc1ccccc1)C(=O)NCC(=O)O (stereo not given) (Cbz-[ξNva]-Gly-OH) &field=T/C returns 93 % of control

* * *

Catalogue of compounds with associated T/C
# System: P388 leukemia ip, CD2F1 mice, survival T/C
# measurementDescription: NCI In Vivo Anticancer Drug Screen. Data for tumor model P388 Leukemia (intraperitoneal) in CD2F1 (CDF1) mice
# assayContext: endpoint: median survival time; dose: 400.0 mg/kg/injection; schedule: Q01DX001 (ip); vehicle: saline with Tween-80; higher = longer survival
# Procedure: The antitumor activity of compounds was measured in mice bearing transplantable tumors. Survival or tumor size were measured and the results are expressed as the measurement made in the treated group (T) divided by the measurement made in the vehicle treated control group (C). The tumor model used in this assay is P388 Leukemia (intraperitoneal) in CD2F1 (CDF1) mice
Inconclusive results and toxic doses are left out.

The compound listed as CCSC(C(OC(C)=O)C(OC(C)=O)C(COC(C)=O)OC(C)=O)n1cnc2c(=S)nc[nH]c21 (centres undefined) has a reported T/C of 87 % of control

For this compound ( CCOC(=O)C12CCC(C(=O)OCC)(CC13SCCS3)C1(C2)SCCS1 ), measured T/C is 97 % of control

T/C reported for this compound CCOC(=O)c1c(NCCO)c(-c2ccccc2)c(=O)n2c1[nH]c1ccccc12 : 87 % of control

// T/C value for c1ccc(-c2nc(-c3ccccn3)cc3ccccc23)cc1 : 112 % of control

* * *

Reported T/C values are given for each entry in this list.
# Test system: P388 leukemia ip, CD2F1 mice, survival T/C
# measurementDescription: NCI In Vivo Anticancer Drug Screen. Data for tumor model P388 Leukemia (intraperitoneal) in CD2F1 (CDF1) mice
# assayContext: endpoint: median survival time; dose: 120.0 mg/kg/injection; schedule: Q01DX005 (ip); vehicle: saline with Tween-80; higher = longer survival
Toxic doses and inconclusive results are not listed.

Solved cases (8 shown):
compound=O=C([O-])c1cc(Br)cc(Br)c1[OH2+].O=C([O-])c1cc(Br)cc(Br)c1[OH2+].[Mn+2] observed="115 % of control"
compound=CCOc1ccc(/C=N/NC(=S)NC23CC4CC(CC(C4)C2)C3)cc1OCC observed="90 % of control"
compound=COC1=CC(=O)C(OC)=C(c2c[nH]c3ccccc23)C1=O observed="87 % of control"
compound=Cc1cc(-c2ccccc2)nc2nc3ccccc3n12 observed="103 % of control"
compound=CCNC(=O)NS(=O)(=O)c1ccc(Sc2ccc(C)cc2)nc1 observed="101 % of control"
compound=CN(C)c1nnnn1-c1ccccc1 observed="107 % of control"
compound=CS/N=N/N=C(\c1ccccc1)N1CCOCC1 observed="97 % of control"
compound="OCC1OC(n2c(=S)[nH]c3ccccc32)C(O)C1O (stereo not given)" observed="98 % of control"

According to the records, this compound COc1ccc2c(n1)Sc1nc3ccccc3nc1N2 displays T/C of 100 % of control

Record CC(=O)OCC(COC(C)=O)(CN1C(=O)c2ccccc2C1=O)CN1C(=O)c2ccccc2C1=O , field T/C: 102 % of control

Record summary for O=C(CCN1C(=O)CC1c1ccco1)N1CCOCC1 (stereo not given) : reported T/C = 103 % of control

* * *

Reported T/C by item:
# Test system: P388 leukemia ip, CD2F1 mice, survival T/C
# measurementDescription: NCI In Vivo Anticancer Drug Screen. Data for tumor model P388 Leukemia (intraperitoneal) in CD2F1 (CDF1) mice
# assayContext: endpoint: median survival time; dose: 25.0 mg/kg/injection; schedule: Q01DX009 (ip); vehicle: saline with Tween-80; higher = longer survival
Inconclusive results and toxic doses are left out.

Take a look at these entries with their results.
molecule=CCNCc1c(C)nc2ccc(N(C)C)cc2c1Cl observed="104 % of control"
molecule=COC(=O)c1cc2cccn2cn1 observed="115 % of control"
molecule=O=c1[nH]cnc2n[nH]nc12 observed="100 % of control"
molecule=CCOC(=O)N1CCN(CCCCCOc2ccc(CC(C)(C)C)cc2Cl)CC1 observed="110 % of control"
molecule=C/C(=N\N=C(N)N)c1cccc(/C(C)=N/N=C(N)N)n1 observed="110 % of control"
molecule=Cc1cccc(N2C(=O)CSC2=S)c1 observed="100 % of control"

Measured T/C of COc1cc(Cl)nc(OC)n1 : 108 % of control

// recorded T/C for CCCCOn1nnc2ccccc21 : 103 % of control

CCn1c2ccccc2c2cc(N=Nc3ccnc4c(O)cccc34)ccc21 has a reported T/C of 117 % of control

Memo: O=C1O/C(=C2/OC(=O)c3ccccc32)c2ccccc21 , reported T/C: 100 % of control

Sure, the documented T/C for S=C1Nc2ccccc2C2CC=NN12 (stereo not given) is 112 % of control

Please fill in: T/C reported for N#Cc1ncc(C[P+](c2ccccc2)(c2ccccc2)c2ccccc2)nc1N = 94 % of control

The molecule identified as Cc1ccc(C)c(C2NC(=O)c3ccccc3N2)c1 (stereo not given) registered its T/C at 104 % of control

The value of T/C measured for the molecule CCCCCCCCCCSCC(N)CO (stereo not given) turned out to be 100 % of control

Reported T/C of O=C(O)c1cccc([N+](=O)[O-])c1C(=O)c1ccccc1 : 100 % of control
